- system tested: Transient receptor potential cation channel subfamily V member 1 (Rattus norvegicus, UniProt O35433)
- Sequence (O35433 whole entry): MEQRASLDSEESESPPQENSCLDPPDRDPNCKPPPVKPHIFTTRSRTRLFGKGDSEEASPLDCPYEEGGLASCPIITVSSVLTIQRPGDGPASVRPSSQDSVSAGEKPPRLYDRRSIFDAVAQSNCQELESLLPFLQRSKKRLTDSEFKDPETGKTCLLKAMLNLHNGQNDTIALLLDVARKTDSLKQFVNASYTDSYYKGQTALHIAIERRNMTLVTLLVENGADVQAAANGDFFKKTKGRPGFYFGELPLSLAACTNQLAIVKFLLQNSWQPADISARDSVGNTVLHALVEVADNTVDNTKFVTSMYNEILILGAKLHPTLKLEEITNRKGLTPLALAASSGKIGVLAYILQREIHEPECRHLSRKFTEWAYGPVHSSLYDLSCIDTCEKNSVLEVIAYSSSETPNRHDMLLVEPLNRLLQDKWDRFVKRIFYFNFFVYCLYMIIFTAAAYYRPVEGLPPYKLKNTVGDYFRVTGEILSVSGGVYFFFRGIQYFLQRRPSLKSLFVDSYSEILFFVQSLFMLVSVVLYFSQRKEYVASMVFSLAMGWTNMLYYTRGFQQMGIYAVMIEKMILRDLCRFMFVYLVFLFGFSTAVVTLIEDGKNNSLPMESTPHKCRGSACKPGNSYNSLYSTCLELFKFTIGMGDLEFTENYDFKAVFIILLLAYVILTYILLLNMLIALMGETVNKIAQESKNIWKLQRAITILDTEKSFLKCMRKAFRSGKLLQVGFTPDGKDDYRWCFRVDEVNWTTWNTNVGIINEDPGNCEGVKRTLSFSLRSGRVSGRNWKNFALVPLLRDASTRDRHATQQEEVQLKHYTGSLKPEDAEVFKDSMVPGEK
- protocol description: Antagonist activity at rat TRPV1 expressed in HEK293 cells assessed as inhibition of capsaicin-induced calcium flux
- Format: functional, cell-based
Would you mind telling me the reported IC50 of each entry?

Sample `FC(F)(F)c1ccccc1Nc1ncnc2sc(Nc3c(Cl)cccc3Cl)nc12` — what was its IC50?
> 5 µM

Query (compound): `CN(c1ccc(C(F)(F)F)cc1)c1ncnc2sc(Nc3c(Cl)cccc3Cl)nc12` ; field requested: IC50
> 1 µM

Param item = `FC(F)(F)c1ccc(Nc2nc(N3CCNCC3)nc3sc(Nc4c(Cl)cccc4Cl)nc23)cc1` ; retrieve measured IC50.
> 5 µM
